A short record of pIC50 observed with Growth factor receptor-bound protein 2 (Homo sapiens) follows.
Positions of bridges follow the written chain, without caps; N, C: chain ends. Non-standard residues stand in square brackets, D forms with d. Residues, ends and D or L forms follow the SMILES beside them. pY = N[C@@H](Cc1ccc(OP(=O)(O)O)cc1)C(=O)O; tBuAla = CC(C)(C)C[C@H](N)C(=O)O; Ac6c = NC1(C(=O)O)CCCCC1
Schema: pIC50 number; meaning minus log10 of the concentration expressed in molar units.

{"compound": "CSCC[C@@H]1NC(=O)CNC(=O)[C@H](C(C)C)NC(=O)[C@H](CC(N)=O)NC(=O)[C@H](CCC(=O)O)NC(=O)[C@H](Cc2ccc(OP(=O)(O)O)cc2)NC(=O)[C@H](CC(C)C)NC(=O)[C@H](CCC(=O)O)NC(=O)CSC[C@@H](C(N)=O)NC(=O)[C@H](Cc2ccc(O)cc2)NC1=O ({CH2CO}-EL[pY]ENVGMYC-NH2; thioether N-10)", "pIC50": 6.86}

For the compound shown here, CC(C)C[C@@H]1NC(=O)[C@@H]2CCCN2C(=O)CSC[C@@H](C(N)=O)NC(=O)[C@H](Cc2ccc(O)cc2)NC(=O)[C@H](CC(C)(C)C)NC(=O)CNC(=O)[C@H](C(C)C)NC(=O)[C@H](CC(N)=O)NC(=O)C2(CCCCC2)NC(=O)[C@H](Cc2ccc(OP(=O)(O)O)cc2)NC1=O ({CH2CO}-PL[pY][Ac6c]NVG[tBuAla]YC-NH2; thioether N-10) , give the reported pIC50. 8.12

* * *

A short record of IC50 observed with Growth factor receptor-bound protein 2 (Homo sapiens, UniProt P62993) follows.
Sequence (P62993 whole entry): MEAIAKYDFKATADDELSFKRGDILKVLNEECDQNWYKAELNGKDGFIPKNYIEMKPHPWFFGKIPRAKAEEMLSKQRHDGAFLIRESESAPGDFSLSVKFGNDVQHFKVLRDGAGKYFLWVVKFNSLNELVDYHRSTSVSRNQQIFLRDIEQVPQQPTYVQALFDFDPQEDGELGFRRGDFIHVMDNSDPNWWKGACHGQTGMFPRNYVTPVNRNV
Positions of bridges follow the written chain, without caps; N, C: chain ends. Non-standard residues stand in square brackets, D forms with d. Residues, ends and D or L forms follow the SMILES beside them. pY = N[C@@H](Cc1ccc(OP(=O)(O)O)cc1)C(=O)O; tBuAla = CC(C)(C)C[C@H](N)C(=O)O; Ac6c = NC1(C(=O)O)CCCCC1
Field: numeric (nM). Do not append units.

Form entry - test system: Growth factor receptor-bound protein 2 (Homo sapiens, UniProt P62993); read-out: IC50; molecule: CSCC[C@@H]1NC(=O)CNC(=O)[C@H](C(C)C)NC(=O)[C@H](CC(N)=O)NC(=O)C2(CCCCC2)NC(=O)[C@H](Cc2ccc(OP(=O)(O)O)cc2)NC(=O)[C@H](CC(C)C)NC(=O)[C@H](C)NC(=O)CSC[C@@H](C(N)=O)NC(=O)[C@H](Cc2ccc(O)cc2)NC1=O ({CH2CO}-AL[pY][Ac6c]NVGMYC-NH2; thioether N-10) 3.77

How about this molecule: CSCC[C@@H]1NC(=O)CNC(=O)[C@H](C(C)C)NC(=O)[C@H](CC(N)=O)NC(=O)[C@H](CCC(=O)O)NC(=O)[C@H](Cc2ccc(OP(=O)(O)O)cc2)NC(=O)[C@H](CC(C)C)NC(=O)[C@@H]2CCCN2C(=O)CSC[C@@H](C(N)=O)NC(=O)[C@H](Cc2ccc(O)cc2)NC1=O ({CH2CO}-PL[pY]ENVGMYC-NH2; thioether N-10) 75.7

How about this molecule: CC(C)[C@@H]1NC(=O)[C@H](CC(N)=O)NC(=O)C2(CCCCC2)NC(=O)[C@H](Cc2ccc(OP(=O)(O)O)cc2)NC(=O)[C@H](Cc2ccccc2)NC(=O)[C@H](C)NC(=O)CSC[C@@H](C(N)=O)NC(=O)[C@H](Cc2ccc(O)cc2)NC(=O)[C@H](CC(C)(C)C)NC(=O)CNC1=O ({CH2CO}-AF[pY][Ac6c]NVG[tBuAla]YC-NH2; thioether N-10) 1.68

How about this molecule: CSCC[C@@H]1NC(=O)CNC(=O)[C@H](C(C)C)NC(=O)[C@H](CC(N)=O)NC(=O)[C@H](CCC(=O)O)NC(=O)[C@H](Cc2ccc(OP(=O)(O)O)cc2)NC(=O)[C@H](CC(C)C)NC(=O)[C@H](C)NC(=O)CSC[C@@H](C(N)=O)NC(=O)[C@H](Cc2ccc(O)cc2)NC1=O ({CH2CO}-AL[pY]ENVGMYC-NH2; thioether N-10) 25.3

How about this molecule: CC(C)C[C@@H]1NC(=O)[C@H](C)NC(=O)CSC[C@@H](C(N)=O)NC(=O)[C@H](Cc2ccc(O)cc2)NC(=O)[C@H](CC(C)(C)C)NC(=O)CNC(=O)[C@H](C(C)C)NC(=O)[C@H](CC(N)=O)NC(=O)[C@H](CCC(=O)O)NC(=O)[C@H](Cc2ccc(OP(=O)(O)O)cc2)NC1=O ({CH2CO}-AL[pY]ENVG[tBuAla]YC-NH2; thioether N-10) 14.5

How about this molecule: CSCC[C@@H]1NC(=O)CNC(=O)[C@H](C(C)C)NC(=O)[C@H](CC(N)=O)NC(=O)[C@H](CCC(=O)O)NC(=O)[C@H](Cc2ccc(OP(=O)(O)O)cc2)NC(=O)[C@H](CC(C)C)NC(=O)CNC(=O)CSC[C@@H](C(N)=O)NC(=O)[C@H](Cc2ccc(O)cc2)NC1=O ({CH2CO}-GL[pY]ENVGMYC-NH2; thioether N-10) 31.5

Ref: ChEMBL document CHEMBL1144969
